measuredTarget: K4
experimentalDetails: SPR
measuredMetric: Kd (nM)
Expressed in nM, but write only the number.

Consider the binder mouse C5a protein (ligand) NLHLLRQKIEEQAAKYKHSVPKKCCYDGARVNFYETCEERVARVTIGPLCIRAFNECCTIANKIRKESPHKPVQLGR and give its recorded Kd.
2380
